B1: tRNA (parent)
chain: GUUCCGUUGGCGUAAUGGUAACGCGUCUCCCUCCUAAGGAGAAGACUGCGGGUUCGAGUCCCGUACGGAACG

variants of: B1; assay: yeast fitness relative to wild type (ratio to wild type); higher = fitter; tRNA-Arg(CCU), competitive growth, 37 C, YPD
Variants at the floor of the assay were thinned out.
experimental-readout: yeast fitness

Problem: Requested read-out: yeast fitness. Entry: C11G A14U A43U G48A
Solution: ≤ 0.5

Problem: Check A14G G56U A65U G68C too.
Solution: ≤ 0.5

Problem: Check G51C U54A too.
Solution: ≤ 0.5

Problem: Check C31U U32C U54G C55U C61U too.
Solution: ≤ 0.5

Problem: Check A14G G18C C30G G52C C61A too.
Solution: ≤ 0.5

Problem: Check C30U G39A A40G U53C G67A too.
Solution: ≤ 0.5

Problem: Check U8C U26A C27A too.
Solution: ≤ 0.5

Problem: Check C4G G17A C22A G38A C49U U53C too.
Solution: ≤ 0.5

Problem: Check C24A C49U C55U too.
Solution: ≤ 0.5

Problem: Check A15C C31A U35C A45U too.
Solution: ≤ 0.5

Problem: Check U2C U53C C61G too.
Solution: ≤ 0.5

Problem: Check U2A C4A C5G A36G G67A too.
Solution: ≤ 0.5

Problem: Check G10A U32A G48A too.
Solution: ≤ 0.5

Problem: Check U7A U28A U32G G50C U54C too.
Solution: ≤ 0.5

Problem: Check C24U C30G C46G G52A G58A too.
Solution: 0.559

Problem: Check G17C A37C too.
Solution: 0.644

Problem: Check U26C G48C G52C A57C G58A too.
Solution: ≤ 0.5

Problem: Check G12C A20C C31G too.
Solution: 0.596

Problem: Check U16C G50C C66U too.
Solution: 0.584

Problem: Check G18A U47C C62A too.
Solution: ≤ 0.5

Problem: Check A57G U59C A69U too.
Solution: 0.748

Problem: Check C5A A36C too.
Solution: 0.608

Problem: Check C22U G52A C61U too.
Solution: ≤ 0.5

Problem: Check C22A G23C C34U A36G A40U G67A too.
Solution: ≤ 0.5

Problem: Check C24U C30A A37G too.
Solution: 0.593

Problem: Check U3A G48C U54C C55A too.
Solution: ≤ 0.5

Problem: Check G10A C11G A69C A70G too.
Solution: ≤ 0.5

Problem: Check G41C C66A too.
Solution: 0.621

Problem: Check U28C A42C C60U too.
Solution: 0.589

Problem: Check G25A C29G G48A A69U too.
Solution: ≤ 0.5

Problem: Check U2C C4A C34A A43G G52C C61A too.
Solution: ≤ 0.5

Problem: Check A15U C22G U32A C66A too.
Solution: ≤ 0.5

Problem: Check U8G C30A G50C C62U G67U too.
Solution: ≤ 0.5

Problem: Check C5U C49A C60G too.
Solution: 0.754
